assayed-system: GLUT4 (Homo sapiens, UniProt P14672)
Sequence (P14672 whole entry): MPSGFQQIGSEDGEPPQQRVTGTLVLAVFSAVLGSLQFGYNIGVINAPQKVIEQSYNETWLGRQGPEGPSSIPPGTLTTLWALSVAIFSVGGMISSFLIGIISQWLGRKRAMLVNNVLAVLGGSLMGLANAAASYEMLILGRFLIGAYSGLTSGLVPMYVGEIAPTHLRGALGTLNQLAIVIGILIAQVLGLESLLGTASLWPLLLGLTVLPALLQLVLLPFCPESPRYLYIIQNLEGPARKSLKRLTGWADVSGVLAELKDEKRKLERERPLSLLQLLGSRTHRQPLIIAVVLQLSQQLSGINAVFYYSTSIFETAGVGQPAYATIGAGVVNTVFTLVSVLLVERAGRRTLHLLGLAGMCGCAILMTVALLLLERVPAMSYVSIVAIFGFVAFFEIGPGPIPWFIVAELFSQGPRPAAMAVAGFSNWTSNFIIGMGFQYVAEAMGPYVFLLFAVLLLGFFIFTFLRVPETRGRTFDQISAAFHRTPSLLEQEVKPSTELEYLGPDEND
method-description: GLUT4 transporter activity assay (2-DG uptake) in CHO-hGLUT4 cells
assay-context: CHO-hGLUT4 cell line; read-out: GLUT4 inhibitory activity (IC50)

compound: Cc1ccc(CCNC(=O)c2cccc(N3C(=O)NC4CC3(C)Oc3c(OCc5ccco5)cccc34)c2)cc1 (stereo not shown)
IC50: 4 to 10 µM

compound: Cc1ccc(CCNC(=O)c2cccc(N3C(=O)NC4CC3(C)Oc3c(OCc5cccnc5N)cccc34)c2)cc1 (stereo not shown)
IC50: > 25 µM

compound: CC12CC(NC(=O)N1c1cccc(C(=O)NC3CCc4ccccc4C3)c1)c1cccc(OCc3ccccc3)c1O2 (stereo not shown)
IC50: 10 to 25 µM

compound: Cc1ccc(CCNC(=O)c2cccc(N3C(=O)NC4CC3(C)Oc3c(OCc5nccn5C)cccc34)c2)cc1 (stereo not shown)
IC50: > 25 µM

compound: Cc1ccc(CCNC(=O)c2cccc(N3C(=O)NC4CC3(C)Oc3c(OCc5ccc([N+](=O)[O-])cc5)cccc34)c2)cc1 (stereo not shown)
IC50: 4 to 10 µM

compound: Cc1ccc(CCNC(=O)c2cccc(N3C(=O)NC4CC3(C)Oc3c(OCc5ccncc5)cccc34)c2)cc1 (stereo not shown)
IC50: 4 to 10 µM

compound: CCNC(=O)c1cccc(N2C(=O)NC3CC2(C)Oc2c(OCc4ccccc4)cccc23)c1 (stereo not shown)
IC50: 10 to 25 µM

compound: Cc1ccc(CCNC(=O)c2cccc(N3C(=O)NC4CC3(C)Oc3c(OCc5ccccc5)cccc34)c2)cc1 (stereo not shown)
IC50: 10 to 25 µM

compound: Cc1ccc(CCNC(=O)c2cccc(N3C(=O)NC4CC3(C)Oc3c(OCc5cncc(C)c5)cccc34)c2)cc1 (stereo not shown)
IC50: 1 to 4 µM

compound: Cc1ccc(CCNC(=O)c2cccc(N3C(=O)NC4CC3(C)Oc3c(OCC5CC5)cccc34)c2)cc1 (stereo not shown)
IC50: 1 to 4 µM

compound: Cc1ccc(OCCNC(=O)c2cccc(N3C(=O)NC4CC3(C)Oc3c(OCc5ccccc5)cccc34)c2)cc1 (stereo not shown)
IC50: 10 to 25 µM

compound: CC12CC(NC(=O)N1c1cccc(C(=O)N3CCc4ccccc43)c1)c1cccc(OCc3ccccc3)c1O2 (stereo not shown)
IC50: > 25 µM

compound: CC12CC(NC(=O)N1c1cccc(C(=O)NCc3ccccc3)c1)c1cccc(OCc3ccccc3)c1O2 (stereo not shown)
IC50: 10 to 25 µM
